# assayRemarks: Cytotoxicity against human Huh7.5 cells
# Format: cell-based, Huh-7
# conditionParameters: huh-7
reportedEndpoint: CC50 (µM)
Hi! Could you send only the number? It should be in µM, unit omitted.

Task: Which CC50 is reported for this compound? COc1ccc2c(O[C@@H]3C[C@H]4C(=O)N[C@]5(C(=O)O)C[C@H]5/C=C\CCCCC[C@H](NC(=O)OC5CCCC5)C(=O)N4C3)cc(-c3csc(NC(C)C)n3)nc2c1
Result: 5.3

* * *

# assayRemarks: Cytotoxicity against human Huh7.5 cells
# Assay type: cell-based, Huh-7
# conditionParameters: Huh7.5 cells
reportedEndpoint: CC50 (µM)
Hi! Could you send only the number? It should be in µM, unit omitted.

- molecule: "C=CCN1c2ccc(OC)cc2[C@]23CCC(=O)N(Cc4ccccc4)C2=NC(C(=O)OC)=C(C(=O)OC)C13 (mixture of isomers)"
  valueUnits: "µM"
  number: 127

Here's the next entry for you.
Task: Which CC50 is reported for this molecule? C=CCN1c2ccc(OC)cc2[C@]23CCC(=O)N(Cc4cc(OC)c(OC)c(OC)c4)C2=NC(C(=O)OC)=C(C(=O)OC)C13 (mixture of isomers)
Result: 5.3

* * *

# System: Hepatitis C virus
# assayRemarks: Antiviral activity against HCV2a J6/JFH1 infected in Huh7-5 cells assessed as inhibition of core protein dimerization by RT PCR
# Assay type: functional, organism-based, Hepacivirus hominis, subtype 2a J6/JFH1
# conditionParameters: Hepatitis C virus, subtype 2a J6/JFH1, Huh7.5; read-out: IC50
Item-by-item account of IC50
Hi! Could you send only the number? It should be in nM, unit omitted.

Please review the entries below; each comes with its answer.
- compound: "C=CCN1c2ccc(OC)cc2[C@]23CCC(=O)N(Cc4ccccc4)C2=NC(C(=O)OC)=C(C(=O)OC)C13 (mixture of isomers)"
  IC50 (nM): 1400
- compound: "COC(=O)C1=C(C(=O)OC)C2N(C)c3ccc(OC)cc3[C@@]23C[C@@H](C(=O)OC)N(C(=O)CC(C)C)C3=N1 (mixture of isomers)"
  IC50 (nM): 9300
- compound: "C=CCN1c2ccc(OC)cc2[C@]23CCC(=O)N(Cc4cc(OC)c(OC)c(OC)c4)C2=NC(C(=O)OC)=C(C(=O)OC)C13 (mixture of isomers)"
  IC50 (nM): 2000

Task: Which IC50 is reported for this compound? CC#CCN1c2ccc(OC)cc2[C@]23CCC(=O)N(CCOC)C2=NC(C(=O)OC)=C(C(=O)OC)C13 (mixture of isomers)
Result: 2000

* * *

# System: Hepatitis C virus
# assayRemarks: Antiviral activity against HCV2a J6/JFH1 infected in Huh7-5 cells at late T2 stage assessed as inhibition of core protein dimerization by RT PCR
# Assay type: functional, organism-based, Hepacivirus hominis
# conditionParameters: subtype 2a J6/JFH1, Huh7.5
pEC50: −log10 of the molar value.
Classification field: condition met = pEC50 at or over 6; condition not met = pEC50 under 6.

Worked examples follow.
- molecule: "C=CCN1c2ccc(OC)cc2[C@]23CCC(=O)N(Cc4ccccc4)C2=NC(C(=O)OC)=C(C(=O)OC)C13 (mixture of isomers)"
  assignedCategory: "condition not met"
- molecule: "COc1ccc2c(O[C@@H]3C[C@H]4C(=O)N[C@]5(C(=O)O)C[C@H]5/C=C\\CCCCC[C@H](NC(=O)OC5CCCC5)C(=O)N4C3)cc(-c3csc(NC(C)C)n3)nc2c1"
  assignedCategory: "condition met"

Task: Could you tell me if the measured pEC50 of COC(=O)C1=C(C(=O)OC)C2N(C)c3ccc(OC)cc3[C@@]23C[C@@H](C(=O)OC)N(C(=O)CC(C)C)C3=N1 (mixture of isomers) reaches 6 or more?
Result: condition not met

Task: Could you tell me if the measured pEC50 of C=CCN1c2ccc(OC)cc2[C@]23CCC(=O)N(Cc4cc(OC)c(OC)c(OC)c4)C2=NC(C(=O)OC)=C(C(=O)OC)C13 (mixture of isomers) reaches 6 or more?
Result: condition not met
